experiment: reduced mouse 2C T cell binding to pMHC/ICAM-1 vesicles – MLPCN validation set, flow cytometry, LFA-1/ICAM-1 modulator project, pilot screen (AID 2523); details: 2C mouse CD8+ T cells, at 7 µM, stronger effect = lower value;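 further: mean PE anti-B7-1 fluorescence of CD8+ cells relative to row control; 100% = QL9-loaded vesicles with DMSO vehicle in the same plate row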
MEASURED QUANTITY: vesicle binding response (%)
Write down the numeric answer in % and omit the unit.

Exercise: Record request: vesicle binding response value, item CC(=O)c1c[nH]c2ccc(C)cc2c1=O
Key: 228

Exercise: Record request: vesicle binding response value, item Cc1cccc(OCC(=O)Nc2ccc(C(=O)NCC(C)C)cc2)c1
Key: 156

Exercise: Record request: vesicle binding response value, item CCCCCCCC(=O)OCC(=O)[C@@]1(O)CC[C@H]2[C@@H]3CCC4=CC(=O)CC[C@]4(C)[C@H]3[C@@H](O)C[C@@]21C
Key: 182

Exercise: Record request: vesicle binding response value, item CC(C)COCC1CC2(CC(C)(c3csc(N)n3)OC2=O)C(=O)O1 (stereo unspecified)
Key: 78.1

Exercise: Record request: vesicle binding response value, item COc1ccccc1OS(=O)(=O)c1ccc(NC(C)=O)cc1
Key: 65.7

Exercise: Record request: vesicle binding response value, item CC(=O)C1=C(O)C(=O)N(CC(=O)O)C1c1ccccc1Cl (stereo unspecified)
Key: 175

Exercise: Record request: vesicle binding response value, item CC(=O)Nc1ccccc1O
Key: 142

Exercise: Record request: vesicle binding response value, item CCCC(=O)Nc1ncnc2c1ncn2[C@@H]1O[C@@H]2COP(=O)(O)O[C@H]2[C@H]1OC(=O)CCC
Key: 131

Exercise: Record request: vesicle binding response value, item Cc1nc2ccccc2n1CC(=O)NC1CCCC1
Key: 118

Exercise: Record request: vesicle binding response value, item Cc1ccc(/C=N/Nc2nc(C(C)(C)C)cs2)o1
Key: 302

Exercise: Record request: vesicle binding response value, item CCOC(=O)N1CCN(Cc2nc(Cc3cccc(F)c3)no2)CC1
Key: 171

* * *

molecular target: AP-2 complex subunit beta (Homo sapiens); assay: beta-arrestin/AP2 interaction blockers – biochemical, validation set, GST-AP2 beads, flow cytometry, pilot screen (AID 504541); settings: FITC arrestin peptide, at 10 µM, stronger effect = higher value, AP2 beta2 appendage fragment, R879A mutant;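 further: AP2 carries R879A mutation and is captured from E. coli lysate; bead-bound FITC arrestin peptide fluorescence measuring arrestin peptide binding to AP2; 0% = DMSO wells and 100% = excess unlabeled arrestin peptide control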
Field: inhibition. Provide a value for each of the compounds that follow.
Write down the numeric answer in % and omit the unit.

Exercise: Test system AP-2 complex subunit beta (Homo sapiens); read-out inhibition; what value for COc1cc(C2Nc3ccccc3C(=O)N2c2ccccc2)ccc1O (stereo not given) ?
Key: -6.11

Exercise: Test system AP-2 complex subunit beta (Homo sapiens); read-out inhibition; what value for Cc1nnc(SCC2=C(C(=O)O)N3C(=O)[C@@H](NC(=O)Cn4cnnn4)[C@H]3SC2)s1 ?
Key: 6.15

Exercise: Test system AP-2 complex subunit beta (Homo sapiens); read-out inhibition; what value for Cc1[nH]nc(-c2ccc(O)cc2O)c1Oc1ccccc1 ?
Key: -10.9

Exercise: Test system AP-2 complex subunit beta (Homo sapiens); read-out inhibition; what value for CC(=O)[C@H]1[C@H](C#N)C[C@H]2[C@@H]3CC=C4C[C@@H](O)CC[C@]4(C)[C@H]3CC[C@@]21C ?
Key: -10

Exercise: Test system AP-2 complex subunit beta (Homo sapiens); read-out inhibition; what value for C=CCC1(Cl)C(=O)C(Cl)=C(N2CCOCC2)C1(OC)OC (stereo not given) ?
Key: -0.19

Exercise: Test system AP-2 complex subunit beta (Homo sapiens); read-out inhibition; what value for O=C(Cc1cccc2ccccc12)N1CC[C@@]2(O)CCCC[C@H]2C1 ?
Key: -11.6

Exercise: Test system AP-2 complex subunit beta (Homo sapiens); read-out inhibition; what value for CCOC(=O)C1=C(C)NC(C)=C(C(=O)OC)C1c1cccc(Cl)c1Cl (stereo not given) ?
Key: -0.86

Exercise: Test system AP-2 complex subunit beta (Homo sapiens); read-out inhibition; what value for C#C[C@]1(O)CC[C@H]2[C@@H]3CCC4=CC(=O)CC[C@@H]4[C@H]3CC[C@@]21CC ?
Key: -1.43

Exercise: Test system AP-2 complex subunit beta (Homo sapiens); read-out inhibition; what value for O=c1nc2sc3ccccc3n2c(=O)n1-c1ccc(Cl)cc1 ?
Key: -5.72

Exercise: Test system AP-2 complex subunit beta (Homo sapiens); read-out inhibition; what value for O=C(N/N=C\c1cc([N+](=O)[O-])ccc1N1CCOCC1)c1ccccn1 ?
Key: 1.39
